METHOD_NOTES: collision cross section in nitrogen (drift tube, single-field); higher = larger gas-phase ion size;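 also: chemical standards at 10 µM analysed by drift tube IMS-QTOF MS in about 3.95 torr nitrogen, mean of duplicate injections differing ≤1%, mass error below 10 ppm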
ASSAY_SETUP: ion type: [M+H]; ion source: APCI; ion mode: Positive
ENDPOINT_NAME: collision cross section in nitrogen (Å²)
I only need the number, in Å², no unit after it.

COMPOUND	collision cross section in nitrogen (Å²)
CCC(=O)C=Cc1ccc(OC)cc1	143.3
CCCCCCOc1ccc(N)cc1	168
COc1cc2c(cc1OC)[C@@]13CCN4CC5=CCO[C@H]6CC(=O)N2[C@H]1[C@H]6[C@H]5C[C@H]43	191.3

// Input: CCCCNc1ccc(NCCCC)c2c1C(=O)c1ccccc1C2=O . Output its collision cross section in nitrogen only.
192.4

// Input: Nc1ccc(Sc2ccc(N)cc2)cc1 . Output its collision cross section in nitrogen only.
164.9

// Input: CO/N=C(/C1=NOCCO1)c1ccccc1Oc1ncnc(Oc2ccccc2Cl)c1F . Output its collision cross section in nitrogen only.
204.8

----------
METHOD_NOTES: collision cross section in nitrogen (drift tube, single-field); higher = larger gas-phase ion size
ASSAY_SETUP: ion type: [M+]; ion source: APCI; ion mode: Positive
Counter-ions that a name gives are not always drawn.
Give Yes when the value for collision cross section in nitrogen is at least 200 Å². Give No when it is less.

# example entries with known answers
COMPOUND	CAT
Cc1c2ccccc2c(C)c2c1ccc1ccccc12 [7,12-Dimethylbenz[a]anthracene]	No
Cc1nc(-c2ccccn2)ncc1C(=O)Nn1cc(C)c2cc(F)ccc21	No
CCCCCCCCc1ccc(Nc2ccc(CCCCCCCC)cc2)cc1 [4,4'-Dioctyldiphenylamine]	Yes
CC(C)c1c(C(=O)Nc2ccccc2)c(-c2ccccc2)c(-c2ccc(F)cc2)n1CC[C@@H](O)C[C@@H](O)CC(=O)O [Atorvastatin calcium]	Yes
COC(=O)[C@H]1[C@H]2C[C@@H]3c4[nH]c5cc(OC)ccc5c4CCN3C[C@H]2C[C@@H](OC(=O)c2cc(OC)c(OC)c(OC)c2)[C@@H]1OC [Reserpine]	Yes

Assess whether reported collision cross section in nitrogen for CCCCc1oc2ccccc2c1C(=O)c1cc(I)c(OCCN(CC)CC)c(I)c1 [Amiodarone hydrochloride] sits at 200 Å² or higher.
Yes

Assess whether reported collision cross section in nitrogen for Nc1nc2ccccc2[nH]1 [2-Aminobenzimidazole] sits at 200 Å² or higher.
No

----------
This section presents compounds with their documented collision cross section in nitrogen values.
METHOD_NOTES: collision cross section in nitrogen (drift tube, single-field); higher = larger gas-phase ion size
ASSAY_SETUP: ion type: [M+Na]; ion source: ESI; ion mode: Positive
Structures can show the parent of a compound that is named as a salt.
I only need the number, in Å², no unit after it.

COMPOUND	collision cross section in nitrogen [Å²]
C[C@@H]1C[C@H]2[C@@H]3CCC4=CC(=O)C=C[C@]4(C)[C@@]3(F)[C@@H](O)C[C@]2(C)[C@@]1(O)C(=O)CO	216.8
CN(C)C(=O)C1(N2CCCCC2)CCN(CC[C@@]2(c3ccc(Cl)c(Cl)c3)CN(C(=O)c3ccccc3)CCO2)CC1	241.3
COCCOCCOCCOCCOC	147.3
O=C(c1ccc(OCCN2CCCCC2)cc1)c1c(-c2ccc(O)cc2)sc2cc(O)ccc12 [Raloxifene hydrochloride]	220.7
OCCOCCN1CCN(C2=Nc3ccccc3Sc3ccccc32)CC1 [Quetiapine fumarate]	188.6

// Input: C[C@H]1C[C@H]2[C@@H]3CCC4=CC(=O)C=C[C@]4(C)[C@@]3(F)[C@@H](O)C[C@]2(C)[C@@]1(O)C(=O)CO . Output its collision cross section in nitrogen only.
215.2

// Input: C=C(C)C(=O)OCCOP(=O)(O)OCCOC(=O)C(=C)C [Bis(methacryloyloxyethyl) hydrogen phosphate] . Output its collision cross section in nitrogen only.
169.5

----------
METHOD_NOTES: collision cross section in nitrogen (drift tube, single-field); higher = larger gas-phase ion size
ASSAY_SETUP: ion type: [M+H]; ion source: ESI; ion mode: Positive
This section presents compounds with their documented collision cross section in nitrogen values.
I only need the number, in Å², no unit after it.

COMPOUND	collision cross section in nitrogen / Å²
O=C(Nc1ccc2ccccc2c1)c1ccc(Cl)cc1Cl [2,4-Dichloro-N-(naphthalene-2-yl)benzamide]	171.9
O=C(Nc1ccc(F)cc1F)c1cccnc1Oc1cccc(C(F)(F)F)c1	189.1
CC(C)Nc1ccc(NC(C)C)c2c1C(=O)c1ccccc1C2=O	179.4

With those in mind, consider the next compound.
// Input: Cc1cnc(C2=NC(=O)C(C)(C(C)C)N2)c(C(=O)O)c1 (stereo not drawn) . Output its collision cross section in nitrogen only.
162.4

----------
METHOD_NOTES: collision cross section in nitrogen (drift tube, single-field); higher = larger gas-phase ion size
ASSAY_SETUP: ion type: [M+H]; ion source: ESI; ion mode: Positive
Counter-ions that a name gives are not always drawn.
Give YES when the value for collision cross section in nitrogen is at least 200 Å². Give NO when it is less.

# example entries with known answers
COMPOUND	CAT
CCOC(=O)NC(=S)Nc1ccccc1NC(=S)NC(=O)OCC [Thiophanate]	NO
CCc1c(C(=O)NN2CCCCC2)nn(-c2ccc(Cl)cc2Cl)c1-c1ccc(Br)cc1 [Surinabant]	YES
O=C1C[C@@H]2OCC=C3CN4CC[C@]56c7ccccc7N1[C@H]5[C@H]2[C@H]3C[C@H]46 [Strychnine]	NO

Assess whether reported collision cross section in nitrogen for Nc1ccc(S(=O)(=O)Nc2nccs2)cc1 [Sulfathiazole sodium] sits at 200 Å² or higher.
NO

Assess whether reported collision cross section in nitrogen for CCCCCCCCCCCCCCN(CCO)CCO [2,2'-(Tetradecylimino)diethanol] sits at 200 Å² or higher.
NO

Assess whether reported collision cross section in nitrogen for OCCc1ccccn1 [2-(2-Pyridyl)ethanol] sits at 200 Å² or higher.
NO

Assess whether reported collision cross section in nitrogen for Cn1c(=O)cc(Oc2ccc(F)cc2F)c2cnc(NCC(C)(C)O)nc21 sits at 200 Å² or higher.
NO

Assess whether reported collision cross section in nitrogen for Nc1cccnc1 [3-Pyridinamine] sits at 200 Å² or higher.
NO

Assess whether reported collision cross section in nitrogen for CC(C)NCC(O)COc1ccc(CC(N)=O)cc1 (centres undefined) [Atenolol] sits at 200 Å² or higher.
NO

Assess whether reported collision cross section in nitrogen for CCCCCCCCc1ccc(Nc2ccc(CCCCCCCC)cc2)cc1 [4,4'-Dioctyldiphenylamine] sits at 200 Å² or higher.
YES

Assess whether reported collision cross section in nitrogen for CCCCN(CCCC)C(=O)N(CCCC)CCCC [1,1,3,3-Tetrabutylurea] sits at 200 Å² or higher.
NO

Assess whether reported collision cross section in nitrogen for CCCCc1oc2ccccc2c1C(=O)c1cc(I)c(OCCN(CC)CC)c(I)c1 [Amiodarone hydrochloride] sits at 200 Å² or higher.
YES

Assess whether reported collision cross section in nitrogen for Cc1cc(-c2ccc(N)c(C)c2)ccc1N [3,3'-Dimethylbenzidine] sits at 200 Å² or higher.
NO

Assess whether reported collision cross section in nitrogen for CCN(CC)c1ccc(N=Nc2ccccc2)cc1 [C.I. Solvent Yellow 56] sits at 200 Å² or higher.
NO

Assess whether reported collision cross section in nitrogen for CCNc1nc(NC(C)C)nc(SC)n1 [Ametryn] sits at 200 Å² or higher.
NO

Assess whether reported collision cross section in nitrogen for Nc1c2c(nc3ccccc13)CCCC2 [Tacrine] sits at 200 Å² or higher.
NO

Assess whether reported collision cross section in nitrogen for CN(C)C(=O)Nc1ccc(Cl)cc1 [Monuron] sits at 200 Å² or higher.
NO

Assess whether reported collision cross section in nitrogen for Cc1cc(N=Nc2ccccc2C)ccc1N [o-Aminoazotoluene] sits at 200 Å² or higher.
NO

Assess whether reported collision cross section in nitrogen for O=[N+]([O-])c1cc(N(CCO)CCO)ccc1NCCO [HC Blue 2] sits at 200 Å² or higher.
NO

----------
METHOD_NOTES: collision cross section in nitrogen (drift tube, single-field); higher = larger gas-phase ion size
ASSAY_SETUP: ion type: [M+H]; ion source: ESI; ion mode: Positive
Structures can show the parent of a compound that is named as a salt.
This section presents compounds with their documented collision cross section in nitrogen values.

COMPOUND	collision cross section in nitrogen
O=C(Nc1ccccc1SSc1ccccc1NC(=O)c1ccccc1)c1ccccc1 [2,2'-Dibenzoylaminodiphenyl disulfide]	194 Å²
Nc1ccc2cc3ccc(N)cc3nc2c1 [Proflavin hydrochloride]	143.9 Å²
CC1=NNC(=O)C1 [3-Methyl-5-pyrazolone]	119.1 Å²
O=[PH]1Oc2ccccc2-c2ccccc21 (stereo not drawn) [6H-Dibenzo[c,e][1,2]oxaphosphinine 6-oxide]	146.1 Å²
O=C(C1CCCCC1)N1CC(=O)N2CCc3ccccc3C2C1 (stereo not drawn) [Praziquantel]	178.3 Å²

// Input: O=C1OC2(c3ccccc31)c1cc(I)c(O)c(I)c1Oc1c2cc(I)c(O)c1I [FD&C Red 3] . Output its collision cross section in nitrogen only.
211.4 Å²

// Input: CC(C)c1ccc(NC(=O)N(C)C)cc1 [Isoproturon] . Output its collision cross section in nitrogen only.
152.1 Å²

// Input: Cc1ncc([N+](=O)[O-])n1C [1,2-Dimethyl-5-nitroimidazole] . Output its collision cross section in nitrogen only.
128 Å²
